tested on: SNB-19; experiment: NCI tumour cell line growth inhibition, 48 h
Calls of active or inactive are those of the source. Rule as the data show it: active = GI50 up to about 1.1 µM and inactive = higher.
Value type: GI50

> print(dat)
                                   compound  experimental.target               result
1  COc1ccc(C2C(Cl)C(=O)N2NC(=O)c2ccccc2O)cc1 (stereo not given)               SNB-19  > 100 µM (inactive)
2  CC(C)C1NC(=O)CC(c2ccccc2)N(N=O)C1c1ccccc1 (stereo not given)               SNB-19  > 100 µM (inactive)
3  COC(=O)C(Cc1ccc(Oc2cc(CC(NC(=O)c3ccccc3)C(=O)OC)ccc2OC)cc1)NC(=O)c1ccccc1 (stereo not given)               SNB-19   35.5 µM (inactive)
4     O=c1cc(N2CCOCC2)oc2c(-c3ccccc3)cccc12               SNB-19   14.6 µM (inactive)
5  Cc1ccc2c(c1)OC1Nc3ccccc3C1=C2O (stereo not given)               SNB-19   31.6 µM (inactive)

### Prompt Data request, read-out GI50, for `CCCn1cc2c(O)nc(SC)nc2n1`
### Response > 100 µM (inactive)

### Prompt Data request, read-out GI50, for COc1cccc2c1C(=O)c1c(O)c3c(c(O)c1C2=O)C[C@@](O)(C(C)O)C[C@@H]3OC1CC(N)C(O)C(C)O1 (stereo not given in full)
### Response 0.883 µM (active)

### Prompt Data request, read-out GI50, for `COc1ccc(C=O)c([N+](=O)[O-])c1`
### Response 64.6 µM (inactive)

### Prompt Data request, read-out GI50, for COc1ccc(N2C(=O)C(C)SC2c2cc3cc(Br)ccc3nc2Cl)cc1 (stereo not given)
### Response 25.6 µM (inactive)

### Prompt Data request, read-out GI50, for N#CC1=C(N)N2C(=O)/C(=C/c3ccccc3)SC2C(c2nc3ccccc3[nH]2)=C1c1ccccc1 (stereo not given)
### Response 3.4 µM (inactive)
